# Test system: RXF 393 renal
# Method description: NCI tumour cell line growth inhibition, 48 h
Value type: TGI (µM)
Unit µM implied. Number only.

| Molecule | Value type | Meas value |
| --- | --- | --- |
| O=[N+]([O-])c1ccc(N=Nc2c(O)[nH]c3ccc([N+](=O)[O-])cc23)cc1 | TGI | 36.5 |
| O=C(Nc1ccc(OC(F)(F)F)cc1)c1sccc1NCc1ccnc2ccccc12 | TGI | 6.96 |
| COc1cc2c3cc1Oc1c(OC)c(OC)cc4c1C(Cc1ccc(O)c(c1)Oc1ccc(cc1)CC3N(C)CC2)CN(C)C4 (stereo not given) | TGI | 23.4 |
| Nc1cc(N)c2nc(-c3ccccc3)c(Oc3ccc(F)cc3)nc2c1 | TGI | 46.5 |

Any idea what TGI was measured for O=CN1CCN(C(=O)c2ccco2)C1=S ?
20.1

* * *

# Test system: OVCAR-4 ovarian
# Method description: NCI tumour cell line growth inhibition, 48 h
Value type: TGI

Before answering, review these 8 worked examples.
| Compound | TGI |
| --- | --- |
| C/C(=N/N(C=O)C[n+]1ccccc1)C(CN(CC(C)C)CC(C)C)C(=O)Nc1ccc(C)cc1C (centres undefined) | > 100 µM |
| Cc1cc(S(=O)(=O)Nc2n[nH]c(Nc3ccccc3)n2)c(SCC(=O)O)cc1Cl | > 100 µM |
| CSc1nc2c(c(O)c(C)c(=O)n2C2OC(COC(C)=O)C(OC(C)=O)C(OC(C)=O)C2OC(C)=O)c(=O)n1C (centres undefined) | > 100 µM |
| COc1cccc(N2C(=O)CS(=O)(=O)C2c2cccc(Oc3ccccc3)c2)c1 (centres undefined) | > 100 µM |
| C[N+]1(CCN=C=NC2CCCCC2)CCOCC1 | > 100 µM |
| O=C1NC(=S)NC(=O)C1C(c1ccc(Cl)cc1)C1C(=O)NC(=S)NC1=O | > 100 µM |
| c1c(N2CCOCC2)ssc1=[N+]1CCOCC1 | > 100 µM |
| CC1(C)OC[C@@H](C[C@H](O)COCc2ccccc2)O1 | > 100 µM |

For C=C(C)[C@H]1CC(=O)/C(C)=C\CC/C(C)=C/CC[C@@]2(C)O[C@@H]2C1 , what is its reported TGI?
75.3 µM

Same read-out for C#C[C@]1(O)CC[C@H]2[C@@H]3CC=C4c5nc(Nc6ccccn6)sc5CC[C@]4(C)[C@H]3CC[C@@]21C ?
9.42 µM

What do you have for Nc1c(S(N)(=O)=O)cc(S(N)(=O)=O)cc1S(N)(=O)=O ?
> 100 µM

Now the compound COc1ccc(-c2cc(-c3ccc(Cl)cc3)c(C#N)c(=O)n2CCCCC(=O)Nc2ccccc2N)cc1
> 100 µM

// repeat for Cc1cc([N+](=O)[O-])c(C)c2c1[nH]c1ccc(/C(CCC3CCCC3)=N\N)cc12 and report
53.9 µM

What do you get for CC(=O)N(CCN)CCN ?
> 10 µM

Proceed to COc1cc(/C=C2\CN(C)CC3=C2Nc2nc(SC)[nH]c(=O)c2C3c2cc(OC)c(OC)c(OC)c2)cc(OC)c1OC (centres undefined)
21.2 µM

// next record Fc1cccc(Cl)c1C1SCc2nc3ccccc3n21 (centres undefined)
> 100 µM

Then what about the compound CC(=O)c1cccc(N(/C=C/C(=O)C(F)(F)F)CC(=O)c2ccc(Cl)cc2)c1 ?
> 100 µM

Also check C=C1C[C@@H]2CC[C@@]34C[C@H]5O[C@H]6[C@@H](O3)[C@H]3O[C@H](CC[C@@H]3O[C@H]6[C@H]5O4)CC(=O)C[C@@H]3[C@@H](OC)[C@@H](C[C@H](O)CN)O[C@H]3C[C@H]3O[C@@H](CC[C@@H]1O2)C[C@@H](C)C3=C
> 1 µM

Please give the result for Cc1ccc(S(=O)(=O)c2c(O)c3ccc(O)c(C)c3oc2=O)cc1 too.
> 100 µM

* * *

# Tested on: HCT-116 colon
# Method description: NCI tumour cell line growth inhibition, 48 h
Value type: TGI

| Molecule | TGI |
| --- | --- |
| CCCCN1C(=O)CC2[C@@H]3CCc4cc(OC)ccc4C3CC[C@]2(C)C1=O (some centres not stated) | > 10 µM |
| Cc1cc2c(C(C)C)c(O)c(O)c(C=Nc3cc(C(F)(F)F)ccc3Cl)c2c(O)c1-c1c(C)cc2c(C(C)C)c(O)c(O)c(C=Nc3cc(C(F)(F)F)ccc3Cl)c2c1O | > 100 µM |
| CC(C)N(C(C)C)[PH+]1O[PH+](N(C(C)C)C(C)C)O[PH+](N(C(C)C)C(C)C)O[PH+](N(C(C)C)C(C)C)O[PH+](N(C(C)C)C(C)C)O1.[C-]#[O+].[C-]#[O+].[C-]#[O+].[C-]#[O+].[C-]#[O+].[C-]#[O+].[C-]#[O+].[Cr].[Cr] (configuration not stated) | > 100 µM |
| CC(=O)c1cccc(N(/C=C/C(=O)C(F)(F)F)CC(=O)c2ccc(Cl)cc2)c1 | > 100 µM |
| COc1ccc2c(c1)-c1c(c3cc(OC)ccc3n1CCN(C)C)CC2 | 24.4 µM |

Data request, read-out TGI, for COc1ccc([C@H]2CC(=O)N3CCCC3N2)cc1 (some centres not stated)
> 100 µM

Then CC(C)(C)c1cc(/C=C2/NC(=O)NC2=O)cc(C(C)(C)C)c1O ?
30.4 µM

* * *

Each entry below carries its recorded log10(TGI).
# System: NCI-H23 lung
# Method description: NCI tumour cell line growth inhibition, 48 h
Recorded TGI (log10, µM)

Below, 4 compounds whose answers are already recorded.
| Compound | log10(TGI) |
| --- | --- |
| S=c1[nH]nc(Cn2c3ccc(Br)cc3c3nc4ccccc4nc32)n1C1CCCCC1 | 1.62 |
| COC(=O)c1ccc2c(c1)C(NC(C)=O)CCc1cc(OC)c(OC)c(OC)c1-2 (stereo not given) | 0.13 |
| Cc1ccc(C(=O)/C(=C/c2ccc([N+](=O)[O-])cc2)S(=O)Cc2ccccc2)cc1 (stereo not given) | 0.72 |
| COc1ccc(OC)c(-c2cc(-c3ccccc3)nn2-c2ccc(S(=O)(=O)NC(C)=O)cc2)c1 | 1.33 |

# evaluate next
Please look up its log10(TGI): N#CC(C#N)SCc1ccccc1
1.95

* * *

# Tested on: EKVX NSCLC
# Method description: NCI tumour cell line growth inhibition, 48 h
Here the recorded TGI is given for each entry.

| Compound | Study target | Meas value |
| --- | --- | --- |
| CCOC(=O)c1c(NC(=O)c2ccc(C(C)C)cc2)sc2c(CN(C)C)c(O)ccc12 | EKVX NSCLC | 9.09 µM |

TGI lookup needed for CC[C@H](C)[C@H](NC(=O)c1cnccn1)C(=O)N(C)[C@H](C[C@@H](OC(C)=O)c1nc(C(=O)N[C@@H](Cc2ccccc2)C[C@H](C)C(=O)OC)cs1)C(C)C , thanks.
> 33.3 µM

Ok, now O=c1[nH]c(=O)n(C2CC(O)C(CO)O2)cc1OC/C=C/Cc1ccccc1 (centres undefined)
> 100 µM

Check Cc1ccc2c(c1C)CC1(Cc3c(C)ccc(C)c3C1=O)C2=O (centres undefined) too.
> 100 µM

* * *

# Tested on: SNB-75 CNS
# Method description: NCI tumour cell line growth inhibition, 48 h
Value type: GI50

| Compound | GI50 |
| --- | --- |
| CCOC(=O)c1c(NC(=O)c2ccc(C(C)C)cc2)sc2c(CN(C)C)c(O)ccc12 | 1.47 µM |

Fill in the recorded GI50 for this compound, with SNB-75 CNS as test system: S=C(N/N=C/c1cc(Cl)cc(Cl)c1)NC12CC3CC(CC(C3)C1)C2
2 µM

Clc1ccc(COC(Cn2ccnc2)c2ccc(Cl)cc2Cl)cc1 (configuration not stated) , same question.
4.97 µM

Let us now turn to C[C@]12CC[C@@H]3c4ccc(O)c([N+](=O)[O-])c4CC[C@H]3[C@@H]1CC[C@@H]2NS(=O)(=O)c1ccc(C(F)(F)F)cc1
1.43 µM

Quick one: O=C(O)c1cc[c]([Hg][S]c2ncnc3nc[nH]c23)cc1
1.45 µM

* * *

# Test system: TK-10 renal
# Method description: NCI tumour cell line growth inhibition, 48 h
Reported GI50 by item:

Consider the following illustrative entries.
| Molecule | Value type | Meas value |
| --- | --- | --- |
| Nc1cc(N)c2nc(-c3ccccc3)c(Oc3ccc(F)cc3)nc2c1 | GI50 | 20.4 µM |
| S=C(N/N=C/c1cc(Cl)cc(Cl)c1)NC12CC3CC(CC(C3)C1)C2 | GI50 | 4.44 µM |
| COc1cc(/C=C2\CN(C)CC3=C2Nc2nc(SC)[nH]c(=O)c2C3c2cc(OC)c(OC)c(OC)c2)cc(OC)c1OC (stereo not given) | GI50 | 6.06 µM |
| Cc1ccc(C(=O)Nc2ccc(CN3CCN(C)CC3)c(C(F)(F)F)c2)cc1C#Cc1cnc(N)c2ccc(F)cc12 | GI50 | 0.416 µM |

Next:
Would you kindly share the measured GI50 for CC(=O)c1cccc(N(/C=C/C(=O)C(F)(F)F)CC(=O)c2ccc(Cl)cc2)c1 ?
> 100 µM
